biological target: PfP2-tetramer (Plasmodium falciparum P2, recombinant) (Plasmodium falciparum); test: isothermal titration calorimetry
Sequence (O00806 whole entry): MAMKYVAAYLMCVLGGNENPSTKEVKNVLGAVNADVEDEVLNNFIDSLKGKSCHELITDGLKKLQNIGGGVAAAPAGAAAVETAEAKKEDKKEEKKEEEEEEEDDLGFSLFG
assayReadout: Kd (µM)
Write the value in µM as a bare number.

Output measured Kd for this item: O=S(=O)(O)c1cccc2cccc(Nc3ccccc3)c12 102
